Source: patent US11834440B2

Measured pIC50 accompanies every entry in the list below.
Target: QPCTL (Homo sapiens (Human), UniProt Q9NXS2)
Sequence (Q9NXS2 whole entry, species assumed): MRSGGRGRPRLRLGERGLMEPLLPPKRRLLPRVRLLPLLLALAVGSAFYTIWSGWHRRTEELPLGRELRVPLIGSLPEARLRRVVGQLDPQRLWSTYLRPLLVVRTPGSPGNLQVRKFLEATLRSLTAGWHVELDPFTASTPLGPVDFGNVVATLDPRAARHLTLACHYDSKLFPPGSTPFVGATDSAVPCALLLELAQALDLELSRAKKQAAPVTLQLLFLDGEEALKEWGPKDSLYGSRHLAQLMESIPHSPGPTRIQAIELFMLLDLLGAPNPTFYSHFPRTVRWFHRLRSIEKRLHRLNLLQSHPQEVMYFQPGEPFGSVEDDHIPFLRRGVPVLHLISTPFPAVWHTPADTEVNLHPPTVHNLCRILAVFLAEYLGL
Assay: QPCTL inhibition, SensoLyte Green Glutaminyl Cyclase Activity Assay
Format: biochemical
Settings: 0.8 nM 2x enzyme solution, 45 min at 37° C., 50 mM Tris pH 8.0, 1% DMSO
Procedure: Preparation of working solution: 2×Glutaminyl Cyclase substrate was diluted in assay buffer to […]. 2×enzyme solution and QPCTL was diluted in assay buffer to 0.8 nM. […] Procedure: 50 μL of 2×Glutaminyl Cyclase substrate solution was added into the assay plate followed by 50 μL of 2×enzyme solution. […] Results were read on SpectraMax Paradigm detecting with emission at Ex/Em=490 nm/520 nm. A Z′ value was calculated for each assay plate. […]
pIC50: −log10 of the molar value.

Molecule: O=C1[C@H](C2CC2)[C@H](c2c(F)cc(-c3cn(C(F)(F)F)cn3)cc2F)N1c1ccc2[nH]cnc2c1 (single isomer, unassigned) [Compound 49B]
pIC50: 7.60 to 8.70

Task item: Assign pIC50 to the following record: O=C1[C@H](O)[C@H](c2c(F)cc(-c3cnn(C(F)F)c3)cc2F)N1c1ccc2[nH]cnc2c1 (racemic) [Compound 25CR]
Reply: > 8.70

Task item: Assign pIC50 to the following record: Cc1cc(-c2cnn(C(F)(F)F)c2)ccc1[C@@H]1[C@H](C2CC2)C(=O)N1c1ccc2[nH]cnc2c1 (single isomer, unassigned) [Compound 56A]
Reply: 6.00 to 7.60

Task item: Assign pIC50 to the following record: O=C1[C@H](C2CC2)[C@H](c2c(F)cc(-n3cnc(C(F)(F)F)c3)cc2F)N1c1ccc2[nH]cnc2c1 (single isomer, unassigned) [Compound 61B]
Reply: > 8.70

* * *

molecular target: QPCTL (Homo sapiens (Human)); experiment: QPCTL inhibition, SensoLyte Green Glutaminyl Cyclase Activity Assay; format: biochemical; settings: 0.8 nM 2x enzyme solution, 45 min at 37° C., 50 mM Tris pH 8.0, 1% DMSO
pIC50: −log10 of the molar value.
Measurement Type: pIC50

A selection of reference data follows.
Compound: C[C@@H]1C(=O)N(c2ccc3[nH]cnc3c2)[C@@H]1c1c(F)cc(N2CCC(F)(F)CC2)cc1F (single isomer, unassigned) [Compound 30A]
pIC50: < 6.00

Compound: Cc1nc(-n2cnc(C(F)(F)F)c2)ccc1[C@@H]1[C@H](C2CC2)C(=O)N1c1ccc2[nH]cnc2c1 (single isomer, unassigned) [Compound 72A]
pIC50: < 6.00

Compound: Cn1cc(-c2cc(F)c([C@@H]3[C@H](O)C(=O)N3c3ccc4[nH]cnc4c3)c(F)c2)cn1 (single isomer, unassigned) [Compound 15A]
pIC50: < 6.00

Task item: Assign pIC50 to the following record: Cc1ccc(-c2cc(F)c([C@H]3[C@@H](C4CC4)C(=O)N3c3ccc4[nH]cnc4c3)c(F)c2)nn1 (single isomer, unassigned) [Compound 65B]
Reply: > 8.70

Task item: Assign pIC50 to the following record: C[C@H]1C(=O)N(c2ccc3[nH]cnc3c2)[C@H]1c1c(F)cc(N2CCC(F)(F)C2)cc1F (racemic) [Compound 12CR]
Reply: 7.60 to 8.70

Task item: Assign pIC50 to the following record: C[C@@H]1C(=O)N(c2ccc3[nH]cnc3c2)[C@@H]1c1c(F)cc(-c2cnn(C)c2)cc1F (single isomer, unassigned) [Compound 13A]
Reply: < 6.00
